molecular target: Acid-sensing ion channel 2 (Mus musculus) (UniProt Q925H0); experiment: Inhibition of mouse ASIC2a expressed in genetically engineered-CHO-K1 cells at 10 uM preincubated for 10 mins at pH 7.4 followed by cell stimulation with proton injection at pH 6.5 by electro-chromic fluorescence voltage sensor-based assay relative to control
Sequence (Q925H0 whole entry): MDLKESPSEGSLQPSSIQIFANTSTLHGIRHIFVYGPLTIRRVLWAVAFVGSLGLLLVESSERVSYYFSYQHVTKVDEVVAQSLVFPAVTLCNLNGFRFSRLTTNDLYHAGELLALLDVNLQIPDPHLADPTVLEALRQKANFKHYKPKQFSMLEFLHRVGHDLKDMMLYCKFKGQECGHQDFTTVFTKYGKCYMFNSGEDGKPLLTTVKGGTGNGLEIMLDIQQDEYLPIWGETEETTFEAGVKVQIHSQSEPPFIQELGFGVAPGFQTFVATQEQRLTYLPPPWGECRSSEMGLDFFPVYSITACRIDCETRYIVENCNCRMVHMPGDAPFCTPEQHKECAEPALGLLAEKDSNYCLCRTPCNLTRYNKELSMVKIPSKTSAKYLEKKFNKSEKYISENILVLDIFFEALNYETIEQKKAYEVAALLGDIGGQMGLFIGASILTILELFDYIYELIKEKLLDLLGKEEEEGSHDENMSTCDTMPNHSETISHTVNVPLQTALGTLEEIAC
observable: inhibition (%)

>  <structure as smiles>
N=C(N)N/N=C/c1ccc(-c2cc(-c3ccc(F)cc3)on2)cc1

>  <unit tag>
%

>  <reported>
95.9

$$$$
>  <structure as smiles>
Cl.N=C(N)N/N=C\c1ccc(-c2cccc(-c3ccc(/C=N/NC(=N)N)cc3)c2)cc1

>  <unit tag>
%

>  <reported>
35.4

$$$$
>  <structure as smiles>
N=C(N)N/N=C/c1ccc(-c2cc(-c3ccc(F)cc3)n[nH]2)cc1

>  <unit tag>
%

>  <reported>
83.6

$$$$
>  <structure as smiles>
COc1ccc(Cn2nc(-c3ccc(/C=N/NC(=N)N)cc3)cc2-c2ccc(/C=N/NC(=N)N)cc2)cc1

>  <unit tag>
%

>  <reported>
69.7

$$$$
>  <structure as smiles>
Br.Br.C(=N/NC1=NCCN1)/c1ccc(-c2cc(-c3ccc(/C=N/NC4=NCCN4)cc3)[nH]n2)cc1

>  <unit tag>
%

>  <reported>
50.6

$$$$
>  <structure as smiles>
Cn1nc(-c2ccc(F)cc2)cc1-c1ccc(/C=N/NC(=N)N)cc1

>  <unit tag>
%

>  <reported>
96.6

$$$$
>  <structure as smiles>
COc1ccc(Cn2nc(-c3ccc(F)cc3)cc2-c2ccc(/C=N/NC(=N)N)cc2)cc1

>  <unit tag>
%

>  <reported>
40.3

$$$$
>  <structure as smiles>
N=C(N)N/N=C/c1ccc(-c2cc(-c3ccc(Br)cc3)n[nH]2)cc1

>  <unit tag>
%

>  <reported>
86.2

$$$$
>  <structure as smiles>
Cl.Cl.N=C(N)N/N=C\c1ccc(-c2cc(-c3ccc(/C=N\NC(=N)N)cc3)[nH]n2)cc1

>  <unit tag>
%

>  <reported>
61.3

$$$$
>  <structure as smiles>
Cn1nc(-c2ccc(/C=N/NC(=N)N)cc2)cc1-c1ccc(/C=N/NC(=N)N)cc1

>  <unit tag>
%

>  <reported>
43.9

$$$$
